- Tested on: NCI-H522
- measurementProtocol: NCI tumour cell line growth inhibition, 48 h
Active and inactive are the calls of the source. No stated cut-off is given here; in the data, active = GI50 up to about 1.1 µM and inactive = higher.
Could you please pick one outcome from this set? active, inactive

Completed entries (count: 2):
# input Short answer needed: outcome of this test for CCOP(=O)(OCC)C(N)c1ccc(Cl)cc1 (stereo unspecified) ?
# output inactive

# input Short answer needed: outcome of this test for c1cc(-c2ccsc2-c2ccsc2)cs1 ?
# output inactive

In the following, a different compound is considered.
# input Short answer needed: outcome of this test for CN(C)c1ccc(C=c2c3cc(O)ccc3n3c2cc(-c2ccccc2)[n+]3C)cc1 ?
# output active

====

# GI50 values compiled below
- Test system: M14
- measurementProtocol: NCI tumour cell line growth inhibition, 48 h
The source made the active and inactive calls. No stated cut-off is given here; in the data, active = GI50 up to about 1.1 µM and inactive = higher. Peptide text beside a SMILES is read from it. * marks the point of attachment. Cbz = O=C(OCc1ccccc1)*; NHNH2 = NN*

Consider the reported GI50 for these compounds:
# GI50 of C(=N\Nc1nnc2c(n1)[nH]c1ccccc12)/c1cccnc1 = 5.07 µM (inactive)

# GI50 of Cc1nc(N)c(N2CCN(CN)CC2)c(O)n1 = > 100 µM (inactive)

# GI50 of c1ccc(P(=Nc2ccccc2N=P(c2ccccc2)(c2ccccc2)c2ccccc2)(c2ccccc2)c2ccccc2)cc1 = 1.44 µM (inactive)

***
# GI50 of COC(=O)CC(NC(=O)OCc1ccccc1)C(=O)NC(CC(=O)OC)C(=O)NC(CC(=O)OC)C(=O)NC(CC(=O)OC)C(=O)NC(CC(=O)OC)C(=O)NC(CC(=O)OC)C(=O)NN (stereo not drawn) (Cbz-D(OMe)D(OMe)D(OMe)D(OMe)D(OMe)D(OMe)-NHNH2; configuration not given here) = > 100 µM (inactive)

# GI50 of O=C1NC(N2CCCCC2)=N/C1=C\c1cccs1 = > 100 µM (inactive)

# GI50 of CC1c2ccccc2Cn2cc3c(c21)C(=O)c1cccc(OP(=O)(O)OCc2ccccc2)c1C3=O (stereo not drawn) = > 100 µM (inactive)

# GI50 of CCOC(=O)c1nc(SC)sc1NC(=O)c1ccc(OC)cc1 = > 100 µM (inactive)

# GI50 of CCc1ccccc1NC(=O)C(=O)C(C#N)c1ccccc1Cl (stereo not drawn) = > 100 µM (inactive)
